Here the recorded TGI is given for each entry.
System: DLD-1 colon
ASSAY_EXPLANATION: NCI tumour cell line growth inhibition, 48 h

- MOLECULE: "CCC1=C(CC2NCCc3ccccc32)CC2c3cc(OC)c(OC)cc3CCN2C1 (stereo not drawn)"
  SYSTEM_TESTED: "DLD-1 colon"
  TGI: "> 100 µM"
- MOLECULE: "CCCn1cc2c3c(cccc31)C1C=C(C)CN(C)C1C2 (stereo not drawn)"
  SYSTEM_TESTED: "DLD-1 colon"
  TGI: "54.3 µM"
- MOLECULE: "O=[N+]([O-])c1ccc(-c2csc(=[N+]3CCCCC3)s2)cc1"
  SYSTEM_TESTED: "DLD-1 colon"
  TGI: "> 100 µM"

* * *

System: KM12 colon
ASSAY_EXPLANATION: NCI tumour cell line growth inhibition, 48 h

- COMPOUND: "CCOC(=O)/C=C/CCC(C)(C)COC(C)=O"
  TGI: "> 10 µM"
- COMPOUND: "COc1ccc2[nH]c(C(=O)OCc3ccc4c(Cl)cc(Cl)c(O)c4n3)cc2c1"
  TGI: "3.49 µM"
- COMPOUND: "CCN(Cc1c(F)cccc1Cl)c1ccc(CO)c(Cl)c1"
  TGI: "25.8 µM"
- COMPOUND: "Nc1c(N2CCOCC2)c(=O)nc2[nH]/c(=C\\c3ccccc3O)c(=O)n12"
  TGI: "> 100 µM"
- COMPOUND: "c1ccc2c(c1)cc1ccc3cccc4ccc2c1c34"
  TGI: "> 100 µM"
- COMPOUND: "C=C1C[C@@H]2O[C@H]3[C@H]4[C@@H](C[C@@H](C)[C@@H](OC(C)=O)[C@H]42)[C@@H](C)CO[C@@]3(C)[C@H](OC(=O)CCCCCCC)CC1=O"
  TGI: "26.2 µM"
- COMPOUND: "CC[C@H](C)[C@H](NC(=O)c1cccn1C)C(=O)N(C)[C@H](C[C@@H](OC(C)=O)c1nc(C(=O)N[C@@H](Cc2ccccc2)C[C@H](C)C(=O)OC)cs1)C(C)C"
  TGI: "> 33.3 µM"
- COMPOUND: "CSc1nc(Cl)c2c(n1)Sc1nc3ccccc3n1C2O (stereo not given)"
  TGI: "> 21.2 µM"
- COMPOUND: "O=C1CC[C@@]23CC(=O)O[C@@H]2CCCC3C1 (stereo not given in full)"
  TGI: "> 100 µM"
- COMPOUND: "COC1(CC[C@H](C)COC2OC(CO)C(O)C(O)C2O)O[C@H]2C[C@H]3[C@@H]4CC=C5C[C@@H](OC6OC(CO)C(OC7OC(C)C(O)C(O)C7O)C(O)C6OC6OC(C)C(O)C(O)C6O)CC[C@]5(C)[C@H]4CC[C@]3(C)[C@H]2[C@@H]1C (stereo not given in full)"
  TGI: "6.65 µM"
- COMPOUND: "COC(=O)C1CCc2nnc(-c3ccccc3)n21 (stereo not given)"
  TGI: "> 100 µM"
- COMPOUND: "CCOC(=O)C1=C(C)NC(c2ccco2)=C(C#N)C1c1cccc([N+](=O)[O-])c1 (stereo not given)"
  TGI: "16 µM"
- COMPOUND: "CC/C(=C/c1ccc(OC)cc1OC)[N+](=O)[O-]"
  TGI: "6.75 µM"
- COMPOUND: "CCC(CO)Nc1nc2c(c(=O)n(C)c(=O)n2C)n1CCO (stereo not given)"
  TGI: "> 100 µM"
- COMPOUND: "CN(N)c1nc(N)c(C#N)c(C#N)c1C#N"
  TGI: "> 10 µM"

* * *

Test system: OVCAR-8 ovarian
ASSAY_EXPLANATION: NCI tumour cell line growth inhibition, 48 h; in the data active means GI50 below about 0.43 µM; inactive means the rest
Possible outcomes: active, inactive

- MOLECULE: "COC(=O)N[C@H]1CCc2c(Cl)c(OC)c(OC)c(OC)c2-c2ccc(SC)c(=O)cc21"
  CATEGORY_LABEL: "active"
- MOLECULE: "Cc1ccc(C(=O)NC2CC2)cc1-c1ccc2[nH]ncc2c1"
  CATEGORY_LABEL: "inactive"
- MOLECULE: "COc1cc(/C=C2\\CCCC3=C2N=C2SC(C)=NN2C3c2cc(OC)c(OC)c(OC)c2)cc(OC)c1OC (stereo not drawn)"
  CATEGORY_LABEL: "active"

* * *

Here the recorded TGI is given for each entry.
System: CAKI-1 renal
ASSAY_EXPLANATION: NCI tumour cell line growth inhibition, 48 h

- COMPOUND: "Nc1ccc(/C=C/c2ccc3cccnc3c2)cc1"
  SYSTEM_TESTED: "CAKI-1 renal"
  TGI: "> 100 µM"
- COMPOUND: "COc1ccc(S(=O)(=O)N(C(C)=O)c2ccccc2/C=C/c2cc[n+]([O-])cc2)cc1"
  SYSTEM_TESTED: "CAKI-1 renal"
  TGI: "> 10 µM"
- COMPOUND: "CNC(=S)N1CCN(C(C)=O)C1=S"
  SYSTEM_TESTED: "CAKI-1 renal"
  TGI: "> 100 µM"
- COMPOUND: "Cc1c(C(=O)NNc2ccccc2)n2c(=S)[nH]nc2c2ccccc12"
  SYSTEM_TESTED: "CAKI-1 renal"
  TGI: "> 100 µM"
- COMPOUND: "CC(C)(C)OC(=O)Nc1ccc2c(c1)C(NC(=O)Nc1cccc(C#N)c1)CC(C)(C)O2 (stereo unspecified)"
  SYSTEM_TESTED: "CAKI-1 renal"
  TGI: "> 42.6 µM"
- COMPOUND: "CC1=CCCC2C(C=O)(C1)CC(C)C2(CO)CC/C(=C/CO)CO (stereo unspecified)"
  SYSTEM_TESTED: "CAKI-1 renal"
  TGI: "> 100 µM"
- COMPOUND: "CCOC(=O)c1c(SCc2cc(=O)[nH]c(=O)[nH]2)n(-c2ccccc2)c(=S)n(-c2ccccc2)c1=O"
  SYSTEM_TESTED: "CAKI-1 renal"
  TGI: "> 100 µM"
- COMPOUND: "CC1(C)N=C(N)N=C(N)N1c1cccc(Cl)c1"
  SYSTEM_TESTED: "CAKI-1 renal"
  TGI: "> 100 µM"
- COMPOUND: "C=CN(C=C)C(=O)Cn1cc(-c2ccccc2)nn1"
  SYSTEM_TESTED: "CAKI-1 renal"
  TGI: "> 100 µM"
- COMPOUND: "C[C@@H]1CC[C@@]2(NC1)O[C@H]1C[C@H]3[C@@H]4CC[C@H]5C[C@@H](O)CC[C@]5(C)[C@H]4CC[C@]3(C)[C@H]1[C@@H]2C"
  SYSTEM_TESTED: "CAKI-1 renal"
  TGI: "> 100 µM"
- COMPOUND: "CC(=O)Oc1ccc2c(-c3ccccc3)c(Oc3ccc(Cl)cc3)c(=O)oc2c1"
  SYSTEM_TESTED: "CAKI-1 renal"
  TGI: "32.3 µM"
- COMPOUND: "CC1=NN2C(=N)/C(=C/c3ccc(F)cc3)C(=O)N=C2S1"
  SYSTEM_TESTED: "CAKI-1 renal"
  TGI: "> 100 µM"
- COMPOUND: "C=C(C)[C@H]1CC23C(=O)[C@@](C)(C[C@H]2C1(C)C)C(=O)C(C(=O)C(C)C)=C3O"
  SYSTEM_TESTED: "CAKI-1 renal"
  TGI: "55.3 µM"
- COMPOUND: "CC(C)c1ccc(NC(=O)Cc2ccc(Nc3ncnc4cc(-c5cnn(CCN(C)C)c5)ccc34)cc2)cc1"
  SYSTEM_TESTED: "CAKI-1 renal"
  TGI: "2.88 µM"
- COMPOUND: "COc1ccc2c(c1)CCc1c-2n[nH]c1-c1[nH]nc2c1CCc1cc(OC)ccc1-2"
  SYSTEM_TESTED: "CAKI-1 renal"
  TGI: "92.7 µM"
- COMPOUND: "O=C1CC[C@@]23CC(=O)O[C@@H]2CCCC3C1 (stereo partly specified)"
  SYSTEM_TESTED: "CAKI-1 renal"
  TGI: "> 100 µM"
- COMPOUND: "COc1ccc2nc3cc(Cl)ccc3c(Nc3cc(CN4CCCC4)c(O)c(CN4CCCC4)c3)c2n1"
  SYSTEM_TESTED: "CAKI-1 renal"
  TGI: "8.44 µM"
- COMPOUND: "CCCCn1c(=O)c(/C=C/C(=O)/C=C/c2cc3ccccc3n(CCCC)c2=O)cc2ccccc21"
  SYSTEM_TESTED: "CAKI-1 renal"
  TGI: "3.27 µM"
- COMPOUND: "Cc1cc(-c2ccccc2)nc2oc(=O)n(C)c12"
  SYSTEM_TESTED: "CAKI-1 renal"
  TGI: "> 100 µM"
- COMPOUND: "O=C1N=C(Nc2nc(-c3csc(NC4=NC(=O)/C(=C\\c5ccccc5)S4)n3)cs2)S/C1=C/c1ccccc1"
  SYSTEM_TESTED: "CAKI-1 renal"
  TGI: "> 50 µM"
- COMPOUND: "O=c1c2cc([N+](=O)[O-])ccc2oc2nc3n(c(=O)c12)CCCS3"
  SYSTEM_TESTED: "CAKI-1 renal"
  TGI: "> 100 µM"
- COMPOUND: "COc1cc2c3c(n(CCCNCCCN)c(=O)c2cc1OC)-c1cc2c(cc1C3=O)OCO2"
  SYSTEM_TESTED: "CAKI-1 renal"
  TGI: "37.3 µM"
- COMPOUND: "C[C@H]1C=C2C(=O)O[C@H]3CC[C@@H](C1)[C@@]23O"
  SYSTEM_TESTED: "CAKI-1 renal"
  TGI: "14.8 µM"
- COMPOUND: "CC/C(=C/c1ccc(OC)cc1OC)[N+](=O)[O-]"
  SYSTEM_TESTED: "CAKI-1 renal"
  TGI: "6.55 µM"
- COMPOUND: "O=C(NC(C(F)(F)F)(C(F)(F)F)P(=O)(Cc1ccccc1)Cc1ccccc1)C(C(F)(F)F)C(F)(F)F"
  SYSTEM_TESTED: "CAKI-1 renal"
  TGI: "97.1 µM"
- COMPOUND: "O=C(c1ccco1)N(C(=O)N1CCC(c2ccccc2)CC1)c1ccccc1"
  SYSTEM_TESTED: "CAKI-1 renal"
  TGI: "> 100 µM"

Each recorded value in this set is attributed to PubChem BioAssay (NCI).
